- target.under.test: F508delCFTR (Homo sapiens, UniProt P13569, DEL508-508)
- Construct: expressed in transfected cells; host or cells: CFBE41o- human lung-derived epithelial cells (CFBE4lo-F508delCFTR-HRP), doxycycline-inducible
- Sequence (P13569 with tags, fused parts or gaps DEL508-508): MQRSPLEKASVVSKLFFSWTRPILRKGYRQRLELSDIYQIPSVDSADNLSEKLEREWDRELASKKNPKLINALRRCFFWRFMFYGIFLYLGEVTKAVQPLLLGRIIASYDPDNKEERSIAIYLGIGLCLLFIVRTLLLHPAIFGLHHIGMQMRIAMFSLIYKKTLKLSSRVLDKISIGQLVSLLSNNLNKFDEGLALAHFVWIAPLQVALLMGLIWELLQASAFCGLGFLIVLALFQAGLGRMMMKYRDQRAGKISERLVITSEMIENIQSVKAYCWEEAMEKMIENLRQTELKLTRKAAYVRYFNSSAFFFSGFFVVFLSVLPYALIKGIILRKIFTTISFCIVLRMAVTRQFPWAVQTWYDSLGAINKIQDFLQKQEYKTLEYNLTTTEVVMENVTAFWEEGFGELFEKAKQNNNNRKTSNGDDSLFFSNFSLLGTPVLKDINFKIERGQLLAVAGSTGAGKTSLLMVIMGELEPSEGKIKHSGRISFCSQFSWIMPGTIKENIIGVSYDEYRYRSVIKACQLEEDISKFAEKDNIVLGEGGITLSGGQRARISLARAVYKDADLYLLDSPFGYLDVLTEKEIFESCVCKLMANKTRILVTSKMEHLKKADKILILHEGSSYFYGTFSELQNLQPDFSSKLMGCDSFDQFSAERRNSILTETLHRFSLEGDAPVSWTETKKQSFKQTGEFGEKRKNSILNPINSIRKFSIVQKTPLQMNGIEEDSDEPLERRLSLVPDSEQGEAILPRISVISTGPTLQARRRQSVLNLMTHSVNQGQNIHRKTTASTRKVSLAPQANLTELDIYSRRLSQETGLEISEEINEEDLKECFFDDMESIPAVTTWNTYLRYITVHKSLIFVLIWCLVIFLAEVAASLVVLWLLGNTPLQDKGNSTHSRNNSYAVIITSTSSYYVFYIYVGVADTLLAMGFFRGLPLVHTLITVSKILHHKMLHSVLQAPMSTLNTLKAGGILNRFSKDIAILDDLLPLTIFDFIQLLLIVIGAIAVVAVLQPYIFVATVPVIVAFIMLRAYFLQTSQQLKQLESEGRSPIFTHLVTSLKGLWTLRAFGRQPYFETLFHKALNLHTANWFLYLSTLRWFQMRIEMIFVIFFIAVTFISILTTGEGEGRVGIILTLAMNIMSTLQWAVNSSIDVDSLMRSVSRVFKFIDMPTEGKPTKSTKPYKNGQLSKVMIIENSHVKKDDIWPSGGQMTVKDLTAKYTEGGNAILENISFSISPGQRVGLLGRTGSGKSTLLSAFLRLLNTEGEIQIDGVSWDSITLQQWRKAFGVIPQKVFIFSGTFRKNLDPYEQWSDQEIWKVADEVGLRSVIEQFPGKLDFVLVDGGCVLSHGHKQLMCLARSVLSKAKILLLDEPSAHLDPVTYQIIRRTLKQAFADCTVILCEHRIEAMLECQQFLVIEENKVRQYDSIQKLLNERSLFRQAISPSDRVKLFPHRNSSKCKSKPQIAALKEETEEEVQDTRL
- experiment.notes: Cell Surface Expression-Horse Radish Peroxidase (CSE-HRP) Assay;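 for Maximum % activity (with co-corrector): co-corrector and positive control are both the same reference corrector at 2 µM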
- Format: cell-based
- test.parameters: with co-corrector (2 μM of 3-[(2R,4R)-4-({[1-(2,2-difluoro-1,3-benzodioxol-5-yl)cyclopropyl]carbonyl}amino)-7-methoxy-3,4-dihydro-2H-chromen-2-yl]benzoic acid); maximum at any tested concentration, normalized to on-plate positive control
assay.metric: Maximum % activity (with co-corrector)

Would you please look over these solved cases?
[[record]]
molecule = "COc1ccc2c(c1)[C@](C)(C(=O)N1[C@H](C(=O)O)[C@@H](C(C)(C)C)[C@H](NCc3cc(C(C)(C)C)ccc3OC)[C@@H]1c1cccnc1OC)CC2"
value_reported = "++ (≥150 and <350)"

[[record]]
molecule = "COc1cc2ccccc2cc1CN[C@H]1[C@H](C(C)(C)C)[C@@H](C(=O)O)N(C(=O)OC(C)C)[C@H]1c1cccnc1N(C)C"
value_reported = "+++ (≥350)"

[[record]]
molecule = "COc1ncc(C(F)(F)F)cc1CN[C@H]1[C@H](C(C)(C)C)[C@@H](C(=O)O)N(C(=O)[C@@H]2CCCO2)[C@H]1c1cccnc1C1CC1"
value_reported = "++ (≥150 and <350)"

[[record]]
molecule = "COc1ccc(C(C)(C)C)cc1CN[C@H]1[C@H](C(C)(C)C)[C@@H](C(=O)O)N(C(=O)C2CCc3cc(F)ccc3O2)[C@H]1c1ccccc1 (stereo partly drawn)"
value_reported = "+++ (≥350)"


Reported Maximum % activity (with co-corrector) ( COc1ccc(C(F)(F)F)cc1CN[C@H]1[C@H](C(C)(C)C)[C@@H](C(=O)O)N(C(=O)OC(C)C)[C@H]1c1ccccc1 ) = +++ (≥350)

Input COc1ccc(CN[C@@H]2[C@@H](C(C)(C)C)[C@H](C(=O)O)N(C(=O)OC(C)C)[C@@H]2c2ccccc2)c(OC)c1 (racemic) . Output Maximum % activity (with co-corrector): ++ (≥150 and <350)

###

- target.under.test: F508delCFTR (Homo sapiens, UniProt P13569, DEL508-508)
- Construct: expressed in transfected cells; host or cells: CFBE41o- human lung-derived epithelial cells (CFBE4lo-F508delCFTR-HRP), doxycycline-inducible
- experiment.notes: Cell Surface Expression-Horse Radish Peroxidase (CSE-HRP) Assay
- Format: cell-based
- test.parameters: with co-corrector (2 μM of 3-[(2R,4R)-4-({[1-(2,2-difluoro-1,3-benzodioxol-5-yl)cyclopropyl]carbonyl}amino)-7-methoxy-3,4-dihydro-2H-chromen-2-yl]benzoic acid); read-out: EC50 (with co-corrector)
pEC50: −log10 of the molar value.
The entries below come with measured pEC50 values attached.

See these solved cases before continuing.
[[record]]
molecule = "COc1cnc(-c2ccccc2F)cc1CN[C@H]1[C@H](C(C)(C)C)[C@@H](C(=O)O)N(C(=O)C2CCCCC2)[C@H]1c1ccccc1"
target_under_test = "F508delCFTR (Homo sapiens, UniProt P13569, DEL508-508)"
value_reported = "5.00 to 6.00"

[[record]]
molecule = "COc1ccc(Cl)cc1CN[C@@H]1[C@@H](C(C)(C)C)[C@H](C(=O)O)N(C(=O)[C@H](OC)c2ccccc2)[C@@H]1c1ccccc1N(C)C"
target_under_test = "F508delCFTR (Homo sapiens, UniProt P13569, DEL508-508)"
value_reported = "5.00 to 6.00"

[[record]]
molecule = "COc1ccc(CN[C@@H]2[C@@H](C(C)(C)C)[C@H](C(=O)O)N(C(=O)C3CCCCC3)[C@@H]2c2ccccc2)cn1 (racemic)"
target_under_test = "F508delCFTR (Homo sapiens, UniProt P13569, DEL508-508)"
value_reported = "5.00 to 6.00"

[[record]]
molecule = "COc1ccc(C(C)(C)C)cc1CN[C@H]1[C@H](C(C)(C)C)[C@@H](C(=O)O)N(C(=O)C2CCc3cc(F)ccc3O2)[C@H]1c1cccnc1N(C)C (stereo partly drawn) [II-482]"
target_under_test = "F508delCFTR (Homo sapiens, UniProt P13569, DEL508-508)"
value_reported = "5.00 to 6.00"

[[record]]
molecule = "COc1ccc(C(C)(C)C)cc1CN[C@H]1[C@H](C(C)(C)C)[C@@H](C(=O)O)N(C(=O)C2CCCCC2)[C@H]1c1ccccc1"
target_under_test = "F508delCFTR (Homo sapiens, UniProt P13569, DEL508-508)"
value_reported = "> 6.00"


The value of pEC50 measured for the molecule COc1ccc(C2(C)CCC2)cc1CN[C@H]1[C@H](C(C)(C)C)[C@@H](C(=O)O)N(C(=O)[C@H]2CCCCO2)[C@H]1c1cccnc1N(C)C turned out to be 5.00 to 6.00

Record COc1cc(C(F)(F)F)ccc1CN[C@H]1[C@H](C(C)(C)C)[C@@H](C(=O)O)N(C(=O)OC(C)C)[C@H]1c1ccccc1C(C)C . Reported pEC50: > 6.00

// pEC50 value for CC(C)(C)[C@@H]1[C@@H](NCc2cc(C(F)(F)F)ccc2OCCCF)[C@@H](c2ccccc2)N(C(=O)C2CCCCC2)[C@H]1C(=O)O (racemic) : 5.00 to 6.00

COc1ccc(C(C)(C)C)cc1CN[C@H]1[C@H](C(C)(C)C)[C@@H](C(=O)O)N(C(=O)N(C(C)C)C(C)C)[C@H]1c1ccccc1 yielded pEC50 of 5.00 to 6.00

// COc1ccc(C(F)(F)F)cc1CN[C@H]1[C@H](C(C)(C)C)[C@@H](C(=O)O)N(C(=O)C2CCC(C)C2)[C@H]1c1ccccc1 (stereo partly drawn) : pEC50 value = > 6.00

pEC50 in this record for COc1cc2ccccc2cc1CN[C@H]1[C@H](C(C)(C)C)[C@@H](C(=O)O)N(C(=O)OC(C)C)[C@H]1c1ccccc1 : 5.00 to 6.00

Record COc1ccc(C(C)(C)C)cc1CN[C@H]1[C@H](C(C)(C)C)[C@@H](C(=O)O)N(C(=O)c2cc(F)cc3c2OCOC3)[C@H]1c1ccccc1 , field pEC50: 5.00 to 6.00

###

- target.under.test: F508delCFTR (Homo sapiens, UniProt P13569, DEL508-508)
- Construct: expressed in transfected cells; host or cells: CFBE41o- human lung-derived epithelial cells (CFBE4lo-F508delCFTR-HRP), doxycycline-inducible
- experiment.notes: Cell Surface Expression-Horse Radish Peroxidase (CSE-HRP) Assay;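 for Maximum % activity (without co-corrector): percent of the 2 µM on-plate positive control corrector response above DMSO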
- Type: cell-based
- test.parameters: test compound without co-corrector; maximum at any tested concentration, normalized to on-plate positive control; read-out: Maximum % activity (without co-corrector)
Measured Emax of individual entries

Use these answered entries as a reference point.
[[record]]
molecule = "COc1ccc(-c2ccccc2)cc1CN[C@H]1[C@H](C(C)(C)C)[C@@H](C(=O)O)N(C(=O)[C@@H]2CCCCO2)[C@H]1c1cccnc1N(C)C"
value_reported = "> 200%"

[[record]]
molecule = "COc1ccc(C(C)(C)C)cc1CN[C@H]1[C@H](C(C)(C)C)[C@@H](C(=O)O)N(C(=O)C2CCc3cc(Cl)ccc32)[C@H]1c1ccccc1 (stereo partly drawn)"
value_reported = "> 200%"


molecule COc1ncc(C(F)(F)F)cc1CN[C@H]1[C@H](C(C)(C)C)[C@@H](C(=O)O)N(C(=O)C2CCCCC2)[C@H]1c1ccccc1C(C)C , Emax observed: > 200%

###

- target.under.test: F508delCFTR (Homo sapiens, UniProt P13569, DEL508-508)
- Construct: expressed in transfected cells; host or cells: CFBE41o- human lung-derived epithelial cells (CFBE4lo-F508delCFTR-HRP), doxycycline-inducible
- experiment.notes: Cell Surface Expression-Horse Radish Peroxidase (CSE-HRP) Assay;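 for Maximum % activity (without co-corrector): percent of the 2 µM on-plate positive control corrector response above DMSO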
- Assay type: cell-based
- test.parameters: without co-corrector; maximum at any tested concentration, normalized to on-plate positive control; read-out: Maximum % activity (without co-corrector)
assay.metric: Emax

Example compounds with recorded Emax:
[[record]]
compound = "COc1ncc(C2CCC2)cc1CN[C@H]1[C@H](C(C)(C)C)[C@@H](C(=O)O)N(C(=O)C2CCCCC2)[C@H]1c1ccccc1"
assay_metric = "Emax"
value_reported = "> 200%"

[[record]]
compound = "COc1ccc(C(F)(F)F)cc1CN[C@H]1[C@H](C(C)(C)C)[C@@H](C(=O)O)N(C(=O)[C@@H]2CCCC(F)(F)C2)[C@H]1c1ccccc1"
assay_metric = "Emax"
value_reported = "< 100%"

[[record]]
compound = "COc1nc(C(C)(C)C)ccc1CN[C@H]1[C@H](C(C)(C)C)[C@@H](C(=O)O)N(C(=O)OC(C)C)[C@H]1c1cccnc1OC"
assay_metric = "Emax"
value_reported = "100 to 200%"

[[record]]
compound = "Cc1cc(C(F)(F)F)cc(N[C@H]2[C@H](C(C)(C)C)[C@@H](C(=O)O)N(C(=O)C3C4CCCC43)[C@H]2c2cccnc2N(C)C)n1 (stereo partly shown)"
assay_metric = "Emax"
value_reported = "< 100%"

[[record]]
compound = "COc1ccc(C(C)(C)C)cc1CN[C@H]1[C@H](C(C)(C)OC)[C@@H](C(=O)O)N(C(=O)C2CCCCC2)[C@H]1c1ccccc1"
assay_metric = "Emax"
value_reported = "> 200%"

[[record]]
compound = "COc1ccc(C(F)(F)F)cc1CN[C@@H]1[C@@H](C(C)(C)OC)[C@H](C(=O)O)N(C(=O)C2CCCCC2)[C@@H]1c1ccccc1 (racemic)"
assay_metric = "Emax"
value_reported = "> 200%"

[[record]]
compound = "COc1ncc(C(F)(F)F)cc1CN[C@H]1[C@H](C(C)(C)C)[C@@H](C(=O)O)N(C(=O)C2CCCCC2)[C@H]1c1ccccc1F"
assay_metric = "Emax"
value_reported = "< 100%"

[[record]]
compound = "COc1ccc(C(C)(C)C#N)cc1CN[C@H]1[C@H](C(C)(C)C)[C@@H](C(=O)O)N(C(=O)C2CCCCC2)[C@H]1c1ccccc1"
assay_metric = "Emax"
value_reported = "100 to 200%"


The compound COc1ccc(C(C)(C)C)cc1CN[C@H]1[C@H](C(C)(C)C)[C@@H](C(=O)O)N(C(=O)[C@@H](C)[C@@H]2CCCCO2)[C@H]1c1ccccc1 (relative stereo) , tested on F508delCFTR (Homo sapiens, UniProt P13569, DEL508-508), showed Emax of > 200%

F508delCFTR (Homo sapiens, UniProt P13569, DEL508-508) assay, compound COc1ccc(C(C)C)cc1CN[C@H]1[C@H](C(C)(C)C)[C@@H](C(=O)O)N(C(=O)C2CCCCC2)[C@H]1c1ccccc1F , recorded Emax = 100 to 200%

Observed Emax, F508delCFTR (Homo sapiens, UniProt P13569, DEL508-508), COc1cc2ccccc2cc1CN[C@H]1[C@H](C(C)(C)C)[C@@H](C(=O)O)N(C(=O)C2CCCCC2)[C@H]1c1ccccc1 : > 200%

So the reported Emax for COc1ccc(C(C)(C)C)cc1CN[C@H]1[C@H](C(C)(C)C)[C@@H](C(=O)O)N(C(=O)[C@@H]2[C@@H](C(F)(F)F)[C@@H]3CC[C@H]2O3)[C@H]1c1cccnc1N(C)C (relative stereo) , on F508delCFTR (Homo sapiens, UniProt P13569, DEL508-508), turned out to be > 200%

Value sought: Emax, system F508delCFTR (Homo sapiens, UniProt P13569, DEL508-508), item COc1ncc(C2CCC2)cc1CN[C@H]1[C@H](C(C)(C)C)[C@@H](C(=O)O)N(C(=O)C2C3CCCC32)[C@H]1c1cccnc1OC (stereo partly shown) . Result: 100 to 200%

Bench note, F508delCFTR (Homo sapiens, UniProt P13569, DEL508-508): entry COc1ccc(C(C)(C)C)cc1CN[C@H]1[C@H](C(C)(C)C)[C@@H](C(=O)O)N(C(=O)C2CCCCO2)[C@H]1c1ccccc1 (relative stereo) , its Emax = > 200%

Emax on F508delCFTR (Homo sapiens, UniProt P13569, DEL508-508) for COc1ccc(C(C)(C)C)cc1CN[C@H]1[C@H](C(C)(C)C)[C@@H](C(=O)O)N(C(=O)[C@H]2[C@H](C(F)(F)F)[C@H]3CC[C@@H]2O3)[C@H]1c1ccccc1OC(F)F (relative stereo) is 100 to 200%

# lookup: COc1nc(C(C)(C)C)ccc1CN[C@H]1[C@H](C(C)(C)C)[C@@H](C(=O)O)N(C(=O)C2CCCCO2)[C@H]1c1ccccc1C(C)C (stereo partly shown) on F508delCFTR (Homo sapiens, UniProt P13569, DEL508-508), Emax = > 200%

Lab entry: F508delCFTR (Homo sapiens, UniProt P13569, DEL508-508) assay, compound COc1ncc(C2CCC2)cc1CN[C@H]1[C@H](C(C)(C)OC)[C@@H](C(=O)O)N(C(=O)C2CCCCC2)[C@H]1c1ccccc1 , Emax = > 200%

Reported F508delCFTR (Homo sapiens, UniProt P13569, DEL508-508) Emax for item COc1ccc(C(C)(C)C)cc1CN[C@H]1[C@H](C(C)(C)C)[C@@H](C(=O)O)N(C(=O)[C@@H]2C[C@H]3CC[C@@H]2O3)[C@H]1c1ccccc1C(C)C (relative stereo) was > 200%

Lab entry: F508delCFTR (Homo sapiens, UniProt P13569, DEL508-508) assay, compound COc1ccc(C23CC(C2)C3)cc1CN[C@H]1[C@H](C(C)(C)C)[C@@H](C(=O)O)N(C(=O)[C@@H]2CCCCO2)[C@H]1c1cccnc1N(C)C , Emax = > 200%

Readout Emax for COc1nc(C(C)(C)C)ncc1CN[C@H]1[C@H](C(C)(C)C)[C@@H](C(=O)O)N(C(=O)C2CCCCC2)[C@H]1c1ccccc1 , test system F508delCFTR (Homo sapiens, UniProt P13569, DEL508-508), was 100 to 200%

F508delCFTR (Homo sapiens, UniProt P13569, DEL508-508) assay, compound COc1ncc(C2CCC2)cc1CN[C@H]1[C@H](C(C)(C)C)[C@@H](C(=O)O)N(C(=O)C2CCCCC2)[C@H]1c1ccccc1C , recorded Emax = > 200%

Readout Emax for COc1nc(C(C)(C)C)ccc1CN[C@H]1[C@H](C23CC(C2)C3)[C@@H](C(=O)O)N(C(=O)OC(C)C)[C@H]1c1ccccc1 , test system F508delCFTR (Homo sapiens, UniProt P13569, DEL508-508), was 100 to 200%
